These measurements were taken from ChEMBL document CHEMBL1795235.

# Tested on: Enterococcus
# assay.summary: Antibacterial activity against vancomycin resistant Enterococcus FN-1 after 24 hrs by microdilution method
# Type: functional
# assay.context: FN-1, 24 h
measured.attribute: MIC (µg/mL)
Response body: numeric value in µg/mL, unit text excluded.

[in] For CCOc1ccc(CCC(=O)O[C@H]2[C@H](Oc3c(-c4ccc(O)c(O)c4)oc4cc(O)cc(O)c4c3=O)O[C@H](CO)[C@@H](O)[C@@H]2OC(=O)CCc2ccc(OCC)cc2)cc1 , what is its reported MIC?
[out] 2

[in] For CCCc1ccc(C(=O)O[C@H]2[C@H](Oc3c(-c4ccc(O)c(O)c4)oc4cc(O)cc(O)c4c3=O)O[C@H](CO)[C@@H](O)[C@@H]2OC(=O)c2ccc(CCC)cc2)cc1 , what is its reported MIC?
[out] 2

[in] For CCCc1ccc(C(=O)OC[C@H]2O[C@@H](Oc3c(-c4ccc(O)c(O)c4)oc4cc(O)cc(O)c4c3=O)[C@H](OC(=O)c3ccc(CCC)cc3)[C@@H](O)[C@H]2O)cc1 , what is its reported MIC?
[out] 8

[in] For CC(=O)OC[C@H]1O[C@@H](Oc2cc(O)c3c(=O)c(O[C@@H]4O[C@H](COC(C)=O)[C@H](OC(C)=O)[C@H](OC(C)=O)[C@H]4OC(C)=O)c(-c4ccc(O)c(O)c4)oc3c2)[C@H](OC(C)=O)[C@@H](OC(C)=O)[C@H]1OC(C)=O , what is its reported MIC?
[out] 64

[in] For O=C(Cc1ccc(F)cc1)O[C@H]1[C@H](Oc2c(-c3ccc(O)c(O)c3)oc3cc(O)cc(O)c3c2=O)O[C@H](CO)[C@@H](O)[C@@H]1OC(=O)Cc1ccc(F)cc1 , what is its reported MIC?
[out] 2

[in] For O=C(CCc1ccc(F)cc1)OC[C@H]1O[C@@H](Oc2c(-c3ccc(O)c(O)c3)oc3cc(O)cc(O)c3c2=O)[C@H](O)[C@@H](O)[C@H]1O , what is its reported MIC?
[out] 16

[in] For Cc1ccc(CCC(=O)Oc2cc(O)c3c(=O)c(OC(=O)CCc4ccc(C)cc4)c(-c4ccc(O)c(O)c4)oc3c2)cc1 , what is its reported MIC?
[out] 64

[in] For CCOc1ccc(C(=O)O[C@H]2[C@H](Oc3c(-c4ccc(O)c(O)c4)oc4cc(O)cc(O)c4c3=O)O[C@H](CO)[C@@H](O)[C@@H]2OC(=O)c2ccc(OCC)cc2)cc1 , what is its reported MIC?
[out] 2

[in] For O=C(CCc1ccc(F)cc1)O[C@H]1[C@H](Oc2c(-c3ccc(O)c(O)c3)oc3cc(O)cc(O)c3c2=O)O[C@H](CO)[C@@H](O)[C@@H]1OC(=O)CCc1ccc(F)cc1 , what is its reported MIC?
[out] 1

[in] For CC1O[C@H](Oc2c(-c3ccc(O)cc3)oc3cc(O)cc(O)c3c2=O)[C@@H](OC(=O)/C=C/c2ccc(O)cc2)[C@@H](O)[C@@H]1OC(=O)/C=C/c1ccc(O)cc1 (some centres undefined) , what is its reported MIC?
[out] 8

[in] For Cc1ccc(CCC(=O)O[C@H]2[C@H](Oc3c(-c4ccc(O)c(O)c4)oc4cc(O)cc(O)c4c3=O)O[C@H](CO)[C@@H](O)[C@@H]2OC(=O)CCc2ccc(C)cc2)cc1 , what is its reported MIC?
[out] 2

[in] For Cc1ccc(CCC(=O)OC[C@H]2O[C@@H](Oc3c(-c4ccc(O)c(O)c4)oc4cc(O)cc(O)c4c3=O)[C@H](O)[C@@H](O)[C@H]2O)cc1 , what is its reported MIC?
[out] 32

[in] For O=C(CCc1ccc(F)cc1)OC[C@H]1O[C@@H](Oc2c(-c3ccc(O)c(O)c3)oc3cc(O)cc(O)c3c2=O)[C@H](OC(=O)CCc2ccc(F)cc2)[C@@H](O)[C@H]1O , what is its reported MIC?
[out] 0.25

[in] For O=C(CCc1ccc(O)cc1)OC[C@H]1O[C@@H](Oc2c(-c3ccc(O)c(O)c3)oc3cc(O)cc(O)c3c2=O)[C@H](OC(=O)CCc2ccc(O)cc2)[C@@H](O)[C@H]1O , what is its reported MIC?
[out] 4

[in] For Cc1ccc(CCC(=O)OC[C@H]2O[C@@H](Oc3c(-c4ccc(O)c(O)c4)oc4cc(O)cc(O)c4c3=O)[C@H](OC(=O)CCc3ccc(C)cc3)[C@@H](O)[C@H]2O)cc1 , what is its reported MIC?
[out] 0.5

[in] For Cc1ccc(CC(=O)OC[C@H]2O[C@@H](Oc3c(-c4ccc(O)c(O)c4)oc4cc(O)cc(O)c4c3=O)[C@H](OC(=O)Cc3ccc(C)cc3)[C@@H](O)[C@H]2O)cc1 , what is its reported MIC?
[out] 8

[in] For O=C(CCc1ccc(O)cc1)O[C@H]1[C@H](Oc2c(-c3ccc(O)c(O)c3)oc3cc(O)cc(O)c3c2=O)O[C@H](CO)[C@@H](O)[C@@H]1OC(=O)CCc1ccc(O)cc1 , what is its reported MIC?
[out] 2

[in] For CC(=O)OC[C@H]1O[C@@H](Oc2c(-c3ccc(O)c(O)c3)oc3cc(O)cc(O)c3c2=O)[C@H](OC(C)=O)[C@@H](OC(C)=O)[C@H]1OC(C)=O , what is its reported MIC?
[out] 32
